condition_info: in n-hexane, 278.15 K
readout_label: solubility (mole fraction)
Please give the numeric answer without any surrounding text.

So, CC(=O)OC(OC(C)=O)c1ccc([N+](=O)[O-])o1 ? Its solubility (mole fraction) was 0.0285

====

condition_info: in ethyl acetate, 293.15 K
readout_label: solubility (mole fraction)

For record CC(=O)OC(OC(C)=O)c1ccc([N+](=O)[O-])o1 the listed solubility (mole fraction) is 0.0068

====

condition_info: in acetonitrile, 318.15 K
readout_label: solubility (mole fraction)

Memo: CC(=O)OC(OC(C)=O)c1ccc([N+](=O)[O-])o1 , reported solubility (mole fraction): 0.0167

====

condition_info: in DMF, 298.15 K
readout_label: solubility (mole fraction)
// return just the number, without any unit appended

// solubility (mole fraction) value for CC(=O)OC(OC(C)=O)c1ccc([N+](=O)[O-])o1 : 0.227
